Procedure Summary: rat pharmacokinetic studies
Run Parameters: rat, SC, 2 mg/kg; mean, n = 3
PEG = not defined here
CL/F overview

Substance | CL/F [mL/min/kg]
SEQ ID NO: 26: PEGylated double homoarginine analog (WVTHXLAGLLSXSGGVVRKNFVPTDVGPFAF; PEGylated; homoarginine residues; CGRP peptide; MOD_RES (1)..(1): …ON; MISC_FEATURE (5)..(5): xaa=homoarginine; MISC_FEATURE (12)..(12): xaa=homoarginine; MISC_FEATURE (19)..(19): PEGylated; MOD_RES (31)..(31): AMIDATION) | 27.67
SEQ ID NO: 40: double glutamine analog PEGylated through amine linkage (Ac-WVTHQLAGLLSQSGGVVRK(PEG)NFVPTDVGPFAF-NH2; reading uncertain) | 27.23
SEQ ID NO: 15: 20 kDa PEG conjugate of SEQ ID NO:7 (reductive alkylation) (Ac-WVTHRLAGLLSRSGGVVRK(20 kDa PEG)NFVPTDVGPFAF-NH2) | 20.95
SEQ ID NO: 32: PEGylated R11Cit, R18Cit analog (product of SEQ ID NO:31) (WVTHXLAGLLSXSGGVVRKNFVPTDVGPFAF; PEGylated; citrulline at 11 and 18; CGRP peptide; MOD_RES (1)..(1): …ON; MISC_FEATURE (5)..(5): xaa=citrulline; MISC_FEATURE (12)..(12): xaa=citrulline; MISC_FEATURE (19)..(19): PEGylated; MOD_RES (31)..(31): AMIDATION) | 1.75

----------
Procedure Summary: in vitro stability in 10% human plasma, LC-MS/MS
Assay type: in vitro ADME
Run Parameters: room temperature, 100 ng/ml, 5 h
remaining at 5 h, 100 ng/ml overview

Substance | remaining at 5 h, 100 ng/ml [%]
Ac-WVTHQLAGLLSQSGGVVRKNFVPTDVGPFAF-NH2 [SEQ ID NO: 39] | 6.3
Ac-WVTHRLAGLLSQSGGVVRKNFVPTDVGPFAF-NH2 [SEQ ID NO: 37] | 0.7

----------
System: CGRP1 receptor (Homo sapiens, UniProt O60894+Q16602)
Construct: SK-N-MC cells express CRLR and RAMP1, which form CGRP1 receptor; endogenous in cells; host or cells: SK-N-MC human neuroblastoma cells
Sequence (Q16602 23-461): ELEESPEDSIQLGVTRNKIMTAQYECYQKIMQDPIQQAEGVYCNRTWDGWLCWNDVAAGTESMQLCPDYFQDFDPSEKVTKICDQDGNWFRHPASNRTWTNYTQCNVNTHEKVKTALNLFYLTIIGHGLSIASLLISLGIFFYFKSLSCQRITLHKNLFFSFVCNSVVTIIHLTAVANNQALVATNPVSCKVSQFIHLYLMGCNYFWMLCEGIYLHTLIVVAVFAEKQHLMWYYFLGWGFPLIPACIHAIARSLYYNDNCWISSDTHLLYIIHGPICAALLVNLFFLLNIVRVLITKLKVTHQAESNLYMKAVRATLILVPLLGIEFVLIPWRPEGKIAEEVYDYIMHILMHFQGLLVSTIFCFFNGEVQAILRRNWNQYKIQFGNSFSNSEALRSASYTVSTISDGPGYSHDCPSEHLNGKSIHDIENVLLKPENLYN
Sequence (O60894 27-148): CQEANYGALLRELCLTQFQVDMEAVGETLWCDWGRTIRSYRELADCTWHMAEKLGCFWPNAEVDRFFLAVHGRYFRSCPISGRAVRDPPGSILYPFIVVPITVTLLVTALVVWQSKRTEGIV
Procedure Summary: in vitro CGRP1 receptor mediated cAMP assay in SK-N-MC cells
Assay type: cell-based
Run Parameters: Table 4; 20 k PEG-conjugated vs unconjugated peptides; n = 2-4; read-out: IC50
Method: The in vitro cAMP assay employed a human neuroblastoma-derived cell line (SK-N-MC). SK-N-MC cells express CRLR and RAMP1, which form CGRP1 receptor. CGRP1 receptor is a G-protein coupled receptor linked to the stimulatory G-protein, Gs. […] Briefly, two days before the assay, the cells were plated in 96-well plates in growth medium. […] This mixture was incubated for 30 minutes at room temperature and then read on a MicroBeta Jet or EnVision plate reader. The results were analyzed using Prism (GraphPad).
pIC50: −log10 of the molar value.

Substance | System | pIC50
Ac-WVTHRLAGLLSRSGGVVKNNFVPTDVGPFAF-NH2 [compound 5] | CGRP1 receptor (Homo sapiens, UniProt O60894+Q16602) | 9.85

----------
Procedure Summary: in vitro stability in 10% rat plasma, LC-MS/MS
Type: in vitro ADME
Run Parameters: room temperature, 100 ng/ml, 5 h

Substance | remaining at 5 h, 100 ng/ml
Ac-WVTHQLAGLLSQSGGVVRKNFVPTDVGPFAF-NH2 [compound 39] | 6.4%
Ac-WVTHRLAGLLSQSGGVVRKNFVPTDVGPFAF-NH2 [compound 37] | 1.3%

Reference source for all entries: patent US8168592B2
